recorded.endpoint: melting point

Would you please look over these solved cases?
{"compound": "CCCn1c(=O)n(CC(C)O)c(=O)c2[nH]c(C34CC5CC(CC3C5)C4)nc21 (stereo unspecified)", "test.value": "195 to 197 °C"}
{"compound": "CC(=O)Cn1cnc2c1c(=O)[nH]c(=O)n2C", "test.value": "< 295 °C"}
{"compound": "NCC1Cc2cc(-c3cccc(C(F)(F)F)c3)cc(F)c2O1 (stereo unspecified)", "test.value": "> 250 °C"}
{"compound": "N#CCc1cccc(C(=O)c2ccc(Cl)cc2)c1", "test.value": "86 to 90 °C"}
{"compound": "Cc1ccc(Sc2cncc3sc(C(=O)NCC(O)CO)cc23)cc1 (stereo unspecified)", "test.value": "120 to 122 °C"}

Look up melting point for this compound: Nc1cc(=O)n(Cc2cccc(Cl)c2)[nH]1
132 °C

----------
Attribute: melting point

Would you please look over these solved cases?
{"compound": "N#CCc1ccc2ncc(C(=O)NCc3ccc(Cl)cc3)c(O)c2c1", "test.value": "244 to 246 °C"}
{"compound": "O=C(NC(=O)N1CCC(Cc2ccccc2)CC1)c1ccc(O)cc1", "test.value": "95 °C"}

Look up melting point for this compound: CCCCCCCCCCC1(CCCCCCCCCC)c2cc(Br)ccc2-c2ccc(I)cc21
43 to 45 °C

----------
Attribute: melting point

Would you please look over these solved cases?
{"compound": "CCOC(=O)c1c(C)[nH]c2ccc(OC[C@@H](O)CN=[N+]=[N-])cc12", "melting point": "75 to 77 °C"}
{"compound": "CC(C)(SN=O)C1COC(=O)N1 (stereo unspecified)", "melting point": "65 °C"}
{"compound": "COc1c(N)cccc1NC(=O)c1ccc(Br)cc1", "melting point": "111 to 112 °C"}

Look up melting point for this compound: CCCCCC(Cc1ccc(OC)c(OCCc2ccccc2)c1)NC(=O)OC(C)(C)C (stereo unspecified)
91.5 to 92.5 °C

Please do the same for O=c1[nH]c(=O)n(C2CC(O)C(CO)O2)cc1C(Cl)=CI (stereo unspecified) as well.
109 to 111 °C

Please do the same for CCOC(=O)C1=C(C)Nc2nc(N3CCOCC3)nc(N3CCOCC3)c2C1c1ccccc1Cl (stereo unspecified) as well.
241 °C

Please do the same for CN(CCF)c1nc2cc(NC(=O)c3c(C(=O)N4CCOCC4)cnn3C)ccn2n1 as well.
144 to 145 °C

Please do the same for N#Cc1cc([N+](=O)[O-])ccc1N1CCCCC1 as well.
75 °C

Please do the same for CC(C)CC(=O)Nc1cccc(-c2ccnc3c(-c4cccc(Cl)c4Cl)cnn23)c1 as well.
154 to 156 °C

Please do the same for Nc1ncnc2c1ncn2C1OC(CS)C(O)C1O (stereo unspecified) as well.
108 to 109 °C

Please do the same for Cn1c(C(F)(F)F)ccc(-c2cc(S(=O)(=O)Cl)c(Cl)cc2F)c1=O as well.
77 to 78 °C

Please do the same for Nc1ccc2[nH]c(C(=O)N3CCC(Cc4ccccc4)CC3)cc2c1 as well.
175 to 180 °C

Please do the same for CCCCc1nc2c(N)nc3ccc(OCc4ccc(OC(F)(F)F)cc4)cc3c2n1C as well.
219 to 220 °C

Please do the same for O=C(NC1CCC1)c1ccc(F)c2c1CC(N(CCCc1c[nH]c3ccc(F)cc13)C1CCC1)CO2 (stereo unspecified) as well.
135 °C

Please do the same for O=C1CC(O)CN1C(=O)Nc1ccccc1 (stereo unspecified) as well.
104 °C

Please do the same for CC(C)c1ccc(C#N)nc1 as well.
47 to 49 °C

Please do the same for CCOC(=O)c1cc(=O)cc(-c2ccccc2OC)o1 as well.
78 to 81 °C

Please do the same for COC(=O)CCC/C=C/c1nn(-c2ccc(NC(C)=O)cc2)c2c1CCC2 as well.
118 to 120 °C

Please do the same for CCCCN1CCC(NC(=O)c2ccc(NCc3ccnc4ccccc34)cc2)CC1 as well.
189 to 190 °C

Please do the same for CC(C)(C)CC(C)(C)Nc1nc(N2CC3CCC(CC3)C2)nc(C(C)(C)C)n1 as well.
164 to 168 °C

Please do the same for Clc1cnc2c(NCc3ccccc3)nc(Cl)nc2c1 as well.
169 to 170 °C

----------
Attribute: melting point

{"molecule": "Cn1cc(-c2ccccc2)c(=O)c(-c2cccc(F)c2)c1", "test.value": "134 °C"}

Look up melting point for this molecule: CC(=O)c1ccc([N+](=O)[O-])c(Nc2cccc(-c3cccnc3)c2)c1
112 to 113 °C

Please do the same for O=C1OCC(c2ccc([N+](=O)[O-])cc2)C1CSCc1ccccc1 (stereo unspecified) as well.
90 to 91 °C

Please do the same for COc1ccc(C(=O)c2ccc([N+](=O)[O-])cc2)cc1OC as well.
160 to 162 °C

Please do the same for COc1cc(C)c(C(=O)c2ccccc2)c(OC)c1OC as well.
88 to 89 °C

Please do the same for CCCCCCCCCCCCCCCCCCCCOC(=O)P(=O)(OC)OC as well.
53 to 54 °C

Please do the same for CC1Cn2c(nc3c(cnn3C)c2=O)S1 (stereo unspecified) as well.
178 to 179 °C

Please do the same for Cc1cc(C)n(C)c(=O)n1 as well.
58 to 60 °C

Please do the same for CC1(C)CCC(C)(C)c2c1ccc(C=Nc1ccc(C(N)=O)cc1)c2N as well.
247 to 249 °C

Please do the same for CSc1nnc(C(F)(F)F)n1C as well.
46 °C

Please do the same for O=C1c2c(O)cncc2C(=O)c2c(Cl)ccc(F)c21 as well.
227 to 228 °C

----------
recorded.endpoint: melting point

Would you please look over these solved cases?
{"compound": "Cc1nc(N)nc(OCc2ccccc2)c1[N+](=O)[O-]", "melting point": "159 to 160 °C"}
{"compound": "O=c1oc(-c2ccc(Cl)c(Cl)c2)cc(O)c1SCc1ccccc1", "melting point": "185 to 186 °C"}
{"compound": "CCNC(=O)NC1CCCc2ccccc21 (stereo not given)", "melting point": "178 to 179 °C"}
{"compound": "Nc1cn(C2CCN(c3c(F)c(N)c4c(=O)c(C(=O)O)cn(C5CC5)c4c3F)C2)nn1 (stereo not given)", "melting point": "210 to 213 °C"}

Look up melting point for this compound: CCN(CC)CCCC(=O)c1ccc2c(c1)Cc1cc(C(=O)CCCN(CC)CC)ccc1-2
79 to 81 °C

----------
recorded.endpoint: melting point

{"molecule": "CCOC(C#Cc1cc(OC)c(OC)c(OC)c1)OCC", "recorded.endpoint": "melting point", "test.value": "62.5 to 63 °C"}
{"molecule": "CCOc1c(O)nc(-c2ccc(Cl)c(OC)c2F)nc1C(=O)OC", "recorded.endpoint": "melting point", "test.value": "173 to 175 °C"}
{"molecule": "CNC(=O)C1N=C(c2ccccc2)c2cc(Cl)ccc2NC1=O (configuration not stated)", "recorded.endpoint": "melting point", "test.value": "294 °C"}
{"molecule": "CSCCn1cc(Cl)nc(N2CCc3cc(Cl)cc(Cl)c32)c1=O", "recorded.endpoint": "melting point", "test.value": "127 to 128 °C"}
{"molecule": "O=C(c1ccc2nc(C3CC3)n(Cc3ccccc3Cl)c2c1)N1CCOCC1", "recorded.endpoint": "melting point", "test.value": "193 to 195 °C"}

Look up melting point for this molecule: Nc1cc(I)ccc1Nc1cccc(-c2cncnc2)c1
166 to 169 °C

Please do the same for COc1ccccc1N1CCN(CCC(C(=O)NCCN2CCOCC2)c2ccccc2)CC1 (configuration not stated) as well.
60 to 65 °C

----------
Attribute: melting point

Would you please look over these solved cases?
{"compound": "Nc1ccc(C(=O)CCCN2CCC(OC(=O)c3cc(Cl)c(N)c4c3OCC4)CC2)cc1N", "recorded.endpoint": "melting point", "test.value": "173 °C"}
{"compound": "COc1ccc(NN=C(Sc2ccc(CF)cc2)C(C)=O)cc1", "recorded.endpoint": "melting point", "test.value": "103 to 104 °C"}
{"compound": "Cn1cnnc1C(OCCO)(c1ccc(F)cc1)c1cc2c3c(c1)c(-c1cccc(Cl)c1)cc(=O)n3CC2 (stereo not given)", "recorded.endpoint": "melting point", "test.value": "138 °C"}
{"compound": "Nc1cccc(-c2ccc(CCN3CCN(C(=O)NCc4ccccc4)CC3)cc2)n1", "recorded.endpoint": "melting point", "test.value": "172 to 175 °C"}
{"compound": "CCN1c2ncccc2C(=S)N(C)c2cccnc21", "recorded.endpoint": "melting point", "test.value": "157 to 158 °C"}
{"compound": "Cc1oc(-c2ccccc2)nc1COc1ccc(CCCC2OC(=O)NC2=O)cc1OC(C)C (stereo not given)", "recorded.endpoint": "melting point", "test.value": "120 to 121 °C"}
{"compound": "O=C(O)CCC(=O)c1ccc(SCCCBr)cc1", "recorded.endpoint": "melting point", "test.value": "91 to 94 °C"}
{"compound": "COc1ccc2sc(Cc3ccc(Cl)cc3)nc2c1", "recorded.endpoint": "melting point", "test.value": "83 to 85 °C"}

Look up melting point for this compound: CSc1nc(C)ccc1NC(=O)CCCCCCCCSc1nc2ccccc2o1
99 to 100 °C

Please do the same for CN1CC(O)=C(C(=O)Nc2ccccn2)N(C)S1(=O)=O as well.
185 °C

Ref: a melting point compilation (Tetko et al.; mined from patent text by program, amines drawn as free bases though some values may be those of a salt)
